# system: UniProtKB P32246
# Sequence (P32246 whole entry): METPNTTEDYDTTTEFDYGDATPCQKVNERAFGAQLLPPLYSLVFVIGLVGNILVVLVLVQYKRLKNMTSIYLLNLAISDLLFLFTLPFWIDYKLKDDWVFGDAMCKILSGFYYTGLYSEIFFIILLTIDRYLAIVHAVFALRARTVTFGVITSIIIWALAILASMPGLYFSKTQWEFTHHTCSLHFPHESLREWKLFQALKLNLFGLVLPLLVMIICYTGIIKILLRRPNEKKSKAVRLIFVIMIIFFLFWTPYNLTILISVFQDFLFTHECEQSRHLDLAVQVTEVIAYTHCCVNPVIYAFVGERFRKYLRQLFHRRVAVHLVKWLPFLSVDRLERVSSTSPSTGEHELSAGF
# test_details: Method B: calcium flux in CCR1 transfected cells (Calcium 4 dye, […] FDSS6000), block of the CCR1/MIP-1α interaction
# Format: cell-based
# applied_conditions: Method B: Calcium 4 dye, MIP-1alpha at EC80
Would you mind telling me the reported IC50 of each entry?
Provide only the numeric value, understood in nM.

What IC50 value was documented for this molecule, "CS(=O)(=O)n1ccc2c(CNC(=O)c3cncc4c3cnn4-c3ccc(F)cc3)ccnc21" ?
3

Which IC50 is reported for this molecule? "CS(=O)(=O)c1cc([C@H](CCO)NC(=O)c2cncc3c2cnn3-c2ccc(F)cc2)ccn1"
12

Give the measured IC50 of "CC[C@H](NC(=O)c1cncc2c1cnn2-c1ccc(F)cc1)c1ccc(S(=O)(=O)CC)nc1" .
0.3

Consider the molecule "C[C@H](NC(=O)c1cncc2c1cnn2-c1ccc(F)cc1)c1cc(N(C)C)nc(S(C)(=O)=O)c1" and give its measured IC50.
0.2

Query: IC50; subject: "CC[C@@H](NC(=O)c1cncc2c1cnn2-c1ccc(F)cc1)c1ccc(OC)c(S(C)(=O)=O)c1"
0.2
